compounds and their reported growth at 10 µM
System: M14
assay.method.text: Anticancer activity against human M14 cells assessed as cell growth at 10^-5 M after 48 hrs by SRB assay
Type: functional
condition.summary: M14, 48 h, read-out: Activity
Field format: number, assumed %, no unit text.

O=C(NCCNc1nccc(-c2c(-c3cccc(O)c3)nc3sccn23)n1)c1cc(N2CCOCC2)cc(C(F)(F)F)c1: 22.4
O=C(NCCNc1nccc(-c2c(-c3cccc(O)c3)nc3sccn23)n1)Nc1cc(C(F)(F)F)cc(C(F)(F)F)c1: 21.4
COc1cccc(-c2nc3sccn3c2-c2ccnc(NCCNC(=O)Nc3ccccc3)n2)c1: 99.1
COc1cccc(-c2nc3sccn3c2-c2ccnc(NCCNC(=O)c3cc(C(F)(F)F)cc(C(F)(F)F)c3)n2)c1: 79.3
O=C(NCCNc1nccc(-c2c(-c3cccc(O)c3)nc3sccn23)n1)Nc1cccc(C(F)(F)F)c1: -21.7
COc1cccc(-c2nc3sccn3c2-c2ccnc(NCCNC(=O)Nc3cccc(C(F)(F)F)c3)n2)c1: 39.2
O=C(NCCNc1nccc(-c2c(-c3cccc(O)c3)nc3sccn23)n1)c1cc(C(F)(F)F)cc(C(F)(F)F)c1: 38.2
O=C(NCCNc1nccc(-c2c(-c3cccc(O)c3)nc3sccn23)n1)c1cccc(C(F)(F)F)c1: 17.5
COc1cccc(-c2nc3sccn3c2-c2ccnc(NCCNC(=O)c3ccccc3)n2)c1: 40.1
O=C(NCCNc1nccc(-c2c(-c3cccc(O)c3)nc3sccn23)n1)Nc1ccccc1: 24

Item `O=C(NCCNc1nccc(-c2c(-c3cccc(O)c3)nc3sccn23)n1)c1ccccc1` has what recorded growth at 10 µM?
15.3

Do the same for `O=C(NCCNc1nccc(-c2c(-c3cccc(O)c3)nc3sccn23)n1)c1ccccc1O` please
16.7

# repeat for `COc1cccc(-c2nc3sccn3c2-c2ccnc(NCCNC(=O)c3ccc(N4CCOCC4)c(C(F)(F)F)c3)n2)c1`
62.1

====

assay.method.text: Anticancer activity against human Hs 578T cells after 48 hrs by SRB assay
Format: functional
Recorded TGI for the following molecules
Could you give me the number in µM? Just the number is fine.

Reference set, count: 3
O=C(NCCNc1nccc(-c2c(-c3cccc(O)c3)nc3sccn23)n1)c1ccccc1O: 26.9
O=C(NCCNc1nccc(-c2c(-c3cccc(O)c3)nc3sccn23)n1)Nc1cccc(C(F)(F)F)c1: 17.8
COc1cccc(-c2nc3sccn3c2-c2ccnc(NCCNC(=O)Nc3cccc(C(F)(F)F)c3)n2)c1: 29

Now for the molecule whose TGI we want.
Any idea what TGI was measured for `O=C(NCCNc1nccc(-c2c(-c3cccc(O)c3)nc3sccn23)n1)c1ccccc1` ?
38.3

====

Tested on: MDA-MB-435
assay.method.text: Anticancer activity against human MDA-MB-435 cells after 48 hrs by SRB assay
Format: functional
condition.summary: MDA-MB-435, 48 h
GI50 values by entry
Give the value, in units of µM, as a plain number.

COc1cccc(-c2nc3sccn3c2-c2ccnc(NCCNC(=O)Nc3cccc(C(F)(F)F)c3)n2)c1: 2.95
O=C(NCCNc1nccc(-c2c(-c3cccc(O)c3)nc3sccn23)n1)Nc1cccc(C(F)(F)F)c1: 2.04
O=C(NCCNc1nccc(-c2c(-c3cccc(O)c3)nc3sccn23)n1)c1ccccc1O: 1.22

# ---- query compound ----
Query: GI50; subject: `O=C(NCCNc1nccc(-c2c(-c3cccc(O)c3)nc3sccn23)n1)c1ccccc1`
0.578

====

Quick reference for growth at 10 µM among some compounds
Test system: SNB-75
assay.method.text: Anticancer activity against human SNB75 cells assessed as cell growth at 10^-5 M after 48 hrs by SRB assay
Assay type: functional
condition.summary: SNB-75, 48 h, read-out: Activity
State the answer as a number, implicitly in %.

O=C(NCCNc1nccc(-c2c(-c3cccc(O)c3)nc3sccn23)n1)c1ccc(N2CCOCC2)c(C(F)(F)F)c1: 58
O=C(NCCNc1nccc(-c2c(-c3cccc(O)c3)nc3sccn23)n1)c1ccccc1O: 40.6
O=C(NCCNc1nccc(-c2c(-c3cccc(O)c3)nc3sccn23)n1)c1cc(C(F)(F)F)cc(C(F)(F)F)c1: 87.7

Consider the record given below.
Reported growth at 10 µM, compound `O=C(NCCNc1nccc(-c2c(-c3cccc(O)c3)nc3sccn23)n1)c1ccccc1` : ____
54.4

====

The entries below are paired with their reported TGI.
System: SR
assay.method.text: Anticancer activity against human SR cells after 48 hrs by SRB assay
Format: functional
Express your answer in µM, writing the number without its unit.

O=C(NCCNc1nccc(-c2c(-c3cccc(O)c3)nc3sccn23)n1)c1ccccc1: 50

// returns reported TGI for input `O=C(NCCNc1nccc(-c2c(-c3cccc(O)c3)nc3sccn23)n1)Nc1cccc(C(F)(F)F)c1`
40

Param item: `COc1cccc(-c2nc3sccn3c2-c2ccnc(NCCNC(=O)Nc3cccc(C(F)(F)F)c3)n2)c1`
29.7

====

Test system: SK-MEL-2
assay.method.text: Anticancer activity against human SK-MEL-2 cells assessed as cell growth at 10^-5 M after 48 hrs by SRB assay
Format: functional
condition.summary: SK-MEL-2, 48 h, read-out: Activity
Entries and their growth at 10 µM
The reply should be a number in %, with the unit left off.

Consider the worked cases shown below.
O=C(NCCNc1nccc(-c2c(-c3cccc(O)c3)nc3sccn23)n1)Nc1cc(C(F)(F)F)cc(C(F)(F)F)c1: 110
COc1cccc(-c2nc3sccn3c2-c2ccnc(NCCNC(=O)Nc3cccc(C(F)(F)F)c3)n2)c1: 61.9
O=C(NCCNc1nccc(-c2c(-c3cccc(O)c3)nc3sccn23)n1)Nc1ccccc1: 97.5
COc1cccc(-c2nc3sccn3c2-c2ccnc(NCCNC(=O)Nc3ccccc3)n2)c1: 99.9

Can you share its growth at 10 µM? I mean this molecule: `O=C(NCCNc1nccc(-c2c(-c3cccc(O)c3)nc3sccn23)n1)c1cc(N2CCOCC2)cc(C(F)(F)F)c1`
64.5

Also need `O=C(NCCNc1nccc(-c2c(-c3cccc(O)c3)nc3sccn23)n1)Nc1cccc(C(F)(F)F)c1` , thanks.
54.4

Proceed to `COc1cccc(-c2nc3sccn3c2-c2ccnc(NCCNC(=O)c3ccccc3)n2)c1`
73.3

Also `COc1cccc(-c2nc3sccn3c2-c2ccnc(NCCNC(=O)c3cc(N4CCOCC4)cc(C(F)(F)F)c3)n2)c1` , if possible.
76.2

====

Tested on: K562
assay.method.text: Anticancer activity against human K562 cells assessed as cell growth at 10^-5 M after 48 hrs by SRB assay
Assay type: functional
condition.summary: K562, 48 h, read-out: Activity
Threshold check on growth at 10 µM: strictly below 70% is yes (1); on or above 70% is no (0).

Reference set, count: 2
COc1cccc(-c2nc3sccn3c2-c2ccnc(NCCNC(=O)Nc3cccc(C(F)(F)F)c3)n2)c1: yes (1)
COc1cccc(-c2nc3sccn3c2-c2ccnc(NCCNC(=O)c3cc(N4CCOCC4)cc(C(F)(F)F)c3)n2)c1: no (0)

Problem: For the compound `COc1cccc(-c2nc3sccn3c2-c2ccnc(NCCNC(=O)c3cc(C(F)(F)F)cc(C(F)(F)F)c3)n2)c1` , is growth at 10 µM under 70%?
no (0)

Also, `O=C(NCCNc1nccc(-c2c(-c3cccc(O)c3)nc3sccn23)n1)c1cccc(C(F)(F)F)c1` please.
yes (1)

Moving on to the next compound: `O=C(NCCNc1nccc(-c2c(-c3cccc(O)c3)nc3sccn23)n1)c1ccccc1O`
yes (1)

One more compound: `O=C(NCCNc1nccc(-c2c(-c3cccc(O)c3)nc3sccn23)n1)c1ccccc1`
yes (1)

====

Listing of entries alongside the reported CC50.
Tested on: SK-MEL-2
assay.method.text: Anticancer activity against human SK-MEL-2 cells after 48 hrs by SRB assay
Assay type: functional
condition.summary: SK-MEL-2, 48 h, read-out: LC50 (the source's name)
Answer in µM, number only, no unit symbol.

O=C(NCCNc1nccc(-c2c(-c3cccc(O)c3)nc3sccn23)n1)c1ccccc1: 48.8
COc1cccc(-c2nc3sccn3c2-c2ccnc(NCCNC(=O)Nc3cccc(C(F)(F)F)c3)n2)c1: 9.78

Now for a further compound.
Recorded CC50 for `O=C(NCCNc1nccc(-c2c(-c3cccc(O)c3)nc3sccn23)n1)Nc1cccc(C(F)(F)F)c1` , please?
36

====

This section presents compounds with their documented TGI values.
Test system: HCC 2998
assay.method.text: Anticancer activity against human HCC2998 cells after 48 hrs by SRB assay
Type: functional
condition.summary: HCC 2998, 48 h

Some solved cases for reference:
O=C(NCCNc1nccc(-c2c(-c3cccc(O)c3)nc3sccn23)n1)Nc1cccc(C(F)(F)F)c1: 5.77 µM
O=C(NCCNc1nccc(-c2c(-c3cccc(O)c3)nc3sccn23)n1)c1ccccc1: 31.2 µM
COc1cccc(-c2nc3sccn3c2-c2ccnc(NCCNC(=O)Nc3cccc(C(F)(F)F)c3)n2)c1: 18.7 µM

Here's the next entry for you.
Tell me the measured TGI of `O=C(NCCNc1nccc(-c2c(-c3cccc(O)c3)nc3sccn23)n1)c1ccccc1O` , please.
16.5 µM
